The reported numbers originate from the Human Domainome abundance scans (Beltran et al. 2025).

B1: Serine/threonine-protein kinase A-Raf, residues 21 to 89; numbered along this chain, P10398 (parent)
chain: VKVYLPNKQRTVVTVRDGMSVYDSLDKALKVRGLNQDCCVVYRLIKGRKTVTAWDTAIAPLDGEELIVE

- Variants of: B1
- method_description: abundance fitness (aPCA) (normalised: wild type 0, dead -1); higher = more abundant; growth selection in yeast, the domain comes from the species named
- test_parameters: Homo sapiens
Classification scheme (abundance fitness): low bracket (below -0.4), middle bracket (-0.4 to below -0.2), high bracket (-0.2 or more)

- mutation_annotation: "L29G"
  class_name: "low bracket"
- mutation_annotation: "N35G"
  class_name: "high bracket"
- mutation_annotation: "Y4S"
  class_name: "high bracket"
- mutation_annotation: "R10F"
  class_name: "high bracket"
- mutation_annotation: "D23C"
  class_name: "low bracket"
- mutation_annotation: "I58Q"
  class_name: "low bracket"
- mutation_annotation: "T11R"
  class_name: "low bracket"
- mutation_annotation: "K49A"
  class_name: "low bracket"
- mutation_annotation: "N35P"
  class_name: "low bracket"
- mutation_annotation: "I45L"
  class_name: "high bracket"
- mutation_annotation: "T56Y"
  class_name: "middle bracket"
- mutation_annotation: "L44A"
  class_name: "low bracket"
- mutation_annotation: "C38I"
  class_name: "high bracket"
- mutation_annotation: "Q36L"
  class_name: "middle bracket"
- mutation_annotation: "V12D"
  class_name: "middle bracket"
- mutation_annotation: "C39W"
  class_name: "low bracket"
- mutation_annotation: "S20E"
  class_name: "low bracket"
- mutation_annotation: "G63Y"
  class_name: "middle bracket"
- mutation_annotation: "A53C"
  class_name: "high bracket"
- mutation_annotation: "V12I"
  class_name: "high bracket"
- mutation_annotation: "V15H"
  class_name: "high bracket"
- mutation_annotation: "Y4C"
  class_name: "middle bracket"
- mutation_annotation: "K8M"
  class_name: "high bracket"
- mutation_annotation: "E65M"
  class_name: "middle bracket"
- mutation_annotation: "I58K"
  class_name: "low bracket"
- mutation_annotation: "M19Y"
  class_name: "middle bracket"
- mutation_annotation: "M19I"
  class_name: "low bracket"
- mutation_annotation: "E69K"
  class_name: "low bracket"
- mutation_annotation: "V12R"
  class_name: "high bracket"
- mutation_annotation: "Q9R"
  class_name: "middle bracket"
- mutation_annotation: "R43I"
  class_name: "low bracket"
- mutation_annotation: "Y42H"
  class_name: "low bracket"
- mutation_annotation: "Y22T"
  class_name: "middle bracket"
- mutation_annotation: "Q36Y"
  class_name: "high bracket"
- mutation_annotation: "N7A"
  class_name: "low bracket"
- mutation_annotation: "G18D"
  class_name: "high bracket"
- mutation_annotation: "T14S"
  class_name: "high bracket"
- mutation_annotation: "A53T"
  class_name: "high bracket"
- mutation_annotation: "G47D"
  class_name: "low bracket"
- mutation_annotation: "D26P"
  class_name: "low bracket"
- mutation_annotation: "K8H"
  class_name: "high bracket"
- mutation_annotation: "G18H"
  class_name: "middle bracket"
